The measurements presented in this section are drawn from patent US20040162263A1.

Assay: Pharmacokinetics of decitabine in IVAP rabbit model
Type: in vivo, rabbits
Settings: rabbit, plasma, 2.5 mg/kg, 2.5 mg/kg USI
Description: Decitabine was administered intravenously to IVAP rabbits (n=3) at three doses: 0.75, 1.5 and 2.5 mg/kg. It was also administered at 2.5mg/kg orally and through previously implanted intestinal and vascular access ports in the portal vein (PV), upper small intestine (USI), lower small intestine (LSI) and colon (IC). […] Pharmacokinetic parameters were calculated using non-compartmental models with the Winnonlin v3.1 program.
Property: half-life (min)
Report as a plain number; the unit min is understood.

Consider Nc1ncn([C@H]2C[C@H](O)[C@@H](CO)O2)c(=O)n1 . Its measured half-life is 47.4
